Each entry below carries its recorded IC50.
system: P. falciparum strain W2 (chloroquine-resistant); test: In vitro antiplasmodial activity, SYBR Green-based assay; type: cell-based; settings: read-out: IC50 ± SD (drug concentration that reduced parasite viability in 50%); P. falciparum W2 chloroquine-resistant; SYBR; mean and SD of triplicate experiments
Assay Metric: IC50 (nM)

{"Molecule": "O=C(CCN1CCOCC1)c1ccccc1", "System Tested": "P. falciparum strain W2 (chloroquine-resistant)", "Numeric Value": 980}
{"Molecule": "O=C(CCN1CCCCC1)c1ccccc1", "System Tested": "P. falciparum strain W2 (chloroquine-resistant)", "Numeric Value": 3590}
{"Molecule": "CC(CN1CCCCC1)C(=O)c1ccccc1 (stereo not drawn)", "System Tested": "P. falciparum strain W2 (chloroquine-resistant)", "Numeric Value": 780}

* * *

system: P. falciparum strain W2 (chloroquine-resistant); test: In vitro antiplasmodial activity, SYBR Green-based assay; format: cell-based; conditions: Plasmodium falciparum, W2, read-out: IC50 ± SD (drug concentration that reduced parasite viability in 50%)
pIC50: −log10 of the molar value.

{"Compound": "CCN(CC)CCCC(C)Nc1ccnc2cc(Cl)ccc12 (stereo not shown) [Chloroquine (CQ), Chloroquine, reference compound]", "pIC50": 6.04}

Origin of the recorded values: paper PMC9549944
